Recorded values, source the supplement of paper PMC3334620.

- target-system: Ylr278c (UniProt Q05854)
- Sequence (Q05854 whole entry): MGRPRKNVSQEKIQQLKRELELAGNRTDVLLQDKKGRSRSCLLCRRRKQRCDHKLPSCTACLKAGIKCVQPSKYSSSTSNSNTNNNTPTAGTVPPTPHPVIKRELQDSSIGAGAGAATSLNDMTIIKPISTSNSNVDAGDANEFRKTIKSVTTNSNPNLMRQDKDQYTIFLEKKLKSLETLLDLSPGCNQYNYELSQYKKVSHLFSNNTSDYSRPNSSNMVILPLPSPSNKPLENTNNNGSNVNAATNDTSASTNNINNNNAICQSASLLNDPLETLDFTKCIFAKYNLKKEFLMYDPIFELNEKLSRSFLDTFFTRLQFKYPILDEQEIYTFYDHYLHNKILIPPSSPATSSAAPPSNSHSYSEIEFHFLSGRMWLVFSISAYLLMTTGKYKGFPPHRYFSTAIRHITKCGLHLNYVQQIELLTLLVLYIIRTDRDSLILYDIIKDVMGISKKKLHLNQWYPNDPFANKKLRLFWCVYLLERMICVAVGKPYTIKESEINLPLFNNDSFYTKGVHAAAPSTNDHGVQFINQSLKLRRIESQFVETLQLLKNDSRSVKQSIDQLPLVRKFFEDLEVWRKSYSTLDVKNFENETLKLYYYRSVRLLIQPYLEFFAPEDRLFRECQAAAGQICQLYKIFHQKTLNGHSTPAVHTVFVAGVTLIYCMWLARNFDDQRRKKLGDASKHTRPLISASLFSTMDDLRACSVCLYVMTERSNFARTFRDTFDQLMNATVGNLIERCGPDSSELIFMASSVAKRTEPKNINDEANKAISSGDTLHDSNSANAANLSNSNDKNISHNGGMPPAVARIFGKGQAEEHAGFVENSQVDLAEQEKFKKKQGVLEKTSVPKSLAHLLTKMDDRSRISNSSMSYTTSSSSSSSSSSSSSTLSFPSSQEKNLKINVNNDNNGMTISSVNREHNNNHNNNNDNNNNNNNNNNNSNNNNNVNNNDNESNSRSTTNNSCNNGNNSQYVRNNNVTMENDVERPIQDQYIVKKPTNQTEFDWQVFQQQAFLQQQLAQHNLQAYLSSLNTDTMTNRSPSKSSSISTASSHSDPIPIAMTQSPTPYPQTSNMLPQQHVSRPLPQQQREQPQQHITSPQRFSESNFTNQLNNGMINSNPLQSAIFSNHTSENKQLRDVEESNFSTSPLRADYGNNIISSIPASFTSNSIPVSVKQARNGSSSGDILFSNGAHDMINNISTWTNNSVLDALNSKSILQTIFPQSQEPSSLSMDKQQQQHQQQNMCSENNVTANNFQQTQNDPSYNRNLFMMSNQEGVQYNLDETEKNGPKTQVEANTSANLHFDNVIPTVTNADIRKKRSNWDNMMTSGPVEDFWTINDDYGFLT
- assay-procedure: PBM E-score (8-mer binding enrichment) (E-score (-0.5 to 0.5)); higher = stronger / more preferred TF binding
- assay-context: protein concentration: 200 nM; construct: GST-DNA-binding domain
Over roughly 33,000 sequences, “E-score (-0.5 to 0.5)” has its median near -0.054; the highest 2% begin near 0.39. This excerpt belongs to a sample that is enriched for the highest values.
Assign 1 to entries whose PBM E-score meets or exceeds 0.1; assign -1 to the rest.

Please review the entries below; each comes with its answer.
1. ACTGATGC	-1
2. CGGGAACA	1
3. GATTCTAC	1

Ask: Form field: PBM E-score at least 0.1? Entry: `CACCATCA`
Reply: -1

Ask: Form field: PBM E-score at least 0.1? Entry: `CAGGAACG`
Reply: -1

Ask: Form field: PBM E-score at least 0.1? Entry: `GGGGCGGA`
Reply: 1

Ask: Form field: PBM E-score at least 0.1? Entry: `ACAAAGCG`
Reply: -1

----------
# PBM E-score per entry
- target-system: Ylr278c (UniProt Q05854)
- assay-procedure: PBM E-score (8-mer binding enrichment) (E-score (-0.5 to 0.5)); higher = stronger / more preferred TF binding
- assay-context: protein concentration: 200 nM; construct: GST-DNA-binding domain
Over roughly 33,000 sequences, “E-score (-0.5 to 0.5)” has its median near -0.054; the highest 2% begin near 0.39. The sample as a whole holds a higher share of the highest values than the screen did.
Returns: the value as a bare number; no unit string appended.

1) ACACCTGG	-0.243
2) ACCGCGGG	0.299
3) AAACAGCA	0.0669
4) ACCGCGGC	0.305
5) CAACTGCA	-0.174

Ask: Enter measured PBM E-score, system Ylr278c (UniProt Q05854), for the sequence shown: `GGCATCTA`
Reply: -0.0448

Ask: Enter measured PBM E-score, system Ylr278c (UniProt Q05854), for the sequence shown: `TTAACCAA`
Reply: -0.136

Ask: Enter measured PBM E-score, system Ylr278c (UniProt Q05854), for the sequence shown: `CATAGCCG`
Reply: 0.23

Ask: Enter measured PBM E-score, system Ylr278c (UniProt Q05854), for the sequence shown: `GCCGCGGC`
Reply: 0.406

----------
- target-system: Ylr278c (UniProt Q05854)
- assay-procedure: PBM E-score (8-mer binding enrichment) (E-score (-0.5 to 0.5)); higher = stronger / more preferred TF binding
- assay-context: protein concentration: 200 nM; construct: GST-DNA-binding domain
Over roughly 33,000 sequences, “E-score (-0.5 to 0.5)” has its median near -0.054; the highest 2% begin near 0.39. What follows is part of a selection rich in the highest values, with near analogues and random picks from the rest.
# PBM E-score per entry
Returns: the value as a bare number; no unit string appended.

1) CGCTCCGA	0.432
2) CGGCCTTC	0.394
3) AAACTTGC	-0.0141
4) CTATGCAG	-0.166
5) CATCCGAG	0.193
6) ACTCCCAT	-0.16
7) CCTCCAAG	-0.202
8) ACTCCGAA	0.484

Ask: Quote PBM E-score reported for `AGACTTCG` please.
Reply: -0.137

----------
- target-system: Ylr278c (UniProt Q05854)
- assay-procedure: PBM E-score (8-mer binding enrichment) (E-score (-0.5 to 0.5)); higher = stronger / more preferred TF binding
- assay-context: protein concentration: 200 nM; construct: GST-DNA-binding domain
Over roughly 33,000 sequences, “E-score (-0.5 to 0.5)” has its median near -0.054; the highest 2% begin near 0.39. What follows is part of a selection rich in the highest values, with near analogues and random picks from the rest.
Assign 1 (yes) to entries whose PBM E-score meets or exceeds 0.3; assign 0 (no) to the rest.

1) CGGCGGAC	1 (yes)
2) ACGGATTA	0 (no)
3) CTGGGATC	0 (no)
4) CCGGACCC	1 (yes)
5) CCGGGATA	1 (yes)

Read the next record carefully.
Ask: Form field: PBM E-score at least 0.3? Entry: `ACGGATTC`
Reply: 0 (no)

----------
- target-system: Ylr278c (UniProt Q05854)
- assay-procedure: PBM E-score (8-mer binding enrichment) (E-score (-0.5 to 0.5)); higher = stronger / more preferred TF binding
- assay-context: protein concentration: 200 nM; construct: GST-DNA-binding domain
The full ranking holds about 33,000 sequences; the median of “E-score (-0.5 to 0.5)” is about -0.054, and the highest 2% start at about 0.39. The entries come from a sample that favours the highest values as a whole.
# PBM E-score per entry
Returns: the value as a bare number; no unit string appended.

1) ACTTCACT	-0.0406
2) ATGAGCCC	-0.138
3) GATTCCGA	0.413

Next sequence, PBM E-score to be filled in.
Ask: Quote PBM E-score reported for `GTGCCGTA` please.
Reply: 0.0749

----------
- target-system: Ylr278c (UniProt Q05854)
- assay-procedure: PBM E-score (8-mer binding enrichment) (E-score (-0.5 to 0.5)); higher = stronger / more preferred TF binding
- assay-context: protein concentration: 200 nM; construct: GST-DNA-binding domain
Over roughly 33,000 sequences, “E-score (-0.5 to 0.5)” has its median near -0.054; the highest 2% begin near 0.39. What follows is part of a selection rich in the highest values, with near analogues and random picks from the rest.
# PBM E-score per entry
Returns: the value as a bare number; no unit string appended.

Example cases with answers are listed next.
1) ATGAAGCC	0.0954
2) TCTGCTCA	-0.298

Next sequence, PBM E-score to be filled in.
Ask: Enter measured PBM E-score, system Ylr278c (UniProt Q05854), for the sequence shown: `CGGCCTTA`
Reply: 0.352

----------
- target-system: Ylr278c (UniProt Q05854)
- assay-procedure: PBM E-score (8-mer binding enrichment) (E-score (-0.5 to 0.5)); higher = stronger / more preferred TF binding
- assay-context: protein concentration: 200 nM; construct: GST-DNA-binding domain
In all, about 33,000 sequences were measured (“E-score (-0.5 to 0.5)”: median about -0.054, highest 2% from about 0.39 on). The entries come from a sample that favours the highest values as a whole.
Assign T to entries whose PBM E-score meets or exceeds 0.4; assign F to the rest.

Ask: Form field: PBM E-score at least 0.4? Entry: `CCCGGGGA`
Reply: F

Ask: Form field: PBM E-score at least 0.4? Entry: `ATCGGAGC`
Reply: T

Ask: Form field: PBM E-score at least 0.4? Entry: `ACGCGAGA`
Reply: F

Ask: Form field: PBM E-score at least 0.4? Entry: `CTCCGGGA`
Reply: T

Ask: Form field: PBM E-score at least 0.4? Entry: `ATCCGAGG`
Reply: F

----------
- target-system: Ylr278c (UniProt Q05854)
- assay-procedure: PBM E-score (8-mer binding enrichment) (E-score (-0.5 to 0.5)); higher = stronger / more preferred TF binding
- assay-context: protein concentration: 200 nM; construct: GST-DNA-binding domain
In all, about 33,000 sequences were measured (“E-score (-0.5 to 0.5)”: median about -0.054, highest 2% from about 0.39 on). The entries come from a sample that favours the highest values as a whole.
# PBM E-score per entry
Returns: the value as a bare number; no unit string appended.

Example cases with answers are listed next.
1. CGGTTGCC	0.109
2. AGGGGTTC	0.0104
3. CAGTGTTC	-0.0124
4. ATTTGAGC	-0.102
5. ATACGGTG	0.0149
6. ACCCGGTG	0.277
7. CGCCGATC	0.377
8. CACGGATC	0.242
9. TAGGAGCA	-0.184
10. GCACTAGA	-0.16

Ask: Enter measured PBM E-score, system Ylr278c (UniProt Q05854), for the sequence shown: `CCTAGAAC`
Reply: -0.0753

Ask: Enter measured PBM E-score, system Ylr278c (UniProt Q05854), for the sequence shown: `TCAGAGCA`
Reply: -0.282

Ask: Enter measured PBM E-score, system Ylr278c (UniProt Q05854), for the sequence shown: `CTGACATC`
Reply: -0.0317

Ask: Enter measured PBM E-score, system Ylr278c (UniProt Q05854), for the sequence shown: `GAGCGGCA`
Reply: 0.207

Ask: Enter measured PBM E-score, system Ylr278c (UniProt Q05854), for the sequence shown: `CACCGATA`
Reply: 0.194

Ask: Enter measured PBM E-score, system Ylr278c (UniProt Q05854), for the sequence shown: `AGGACATC`
Reply: 0.0899

Ask: Enter measured PBM E-score, system Ylr278c (UniProt Q05854), for the sequence shown: `ATCCGATG`
Reply: 0.323
